Molecular target: human mGlu5a receptor (Homo sapiens, UniProt P41594)
Construct: expressed in transfected cells
Sequence (P41594 21-1180 isoform P41594-2 limits assumed): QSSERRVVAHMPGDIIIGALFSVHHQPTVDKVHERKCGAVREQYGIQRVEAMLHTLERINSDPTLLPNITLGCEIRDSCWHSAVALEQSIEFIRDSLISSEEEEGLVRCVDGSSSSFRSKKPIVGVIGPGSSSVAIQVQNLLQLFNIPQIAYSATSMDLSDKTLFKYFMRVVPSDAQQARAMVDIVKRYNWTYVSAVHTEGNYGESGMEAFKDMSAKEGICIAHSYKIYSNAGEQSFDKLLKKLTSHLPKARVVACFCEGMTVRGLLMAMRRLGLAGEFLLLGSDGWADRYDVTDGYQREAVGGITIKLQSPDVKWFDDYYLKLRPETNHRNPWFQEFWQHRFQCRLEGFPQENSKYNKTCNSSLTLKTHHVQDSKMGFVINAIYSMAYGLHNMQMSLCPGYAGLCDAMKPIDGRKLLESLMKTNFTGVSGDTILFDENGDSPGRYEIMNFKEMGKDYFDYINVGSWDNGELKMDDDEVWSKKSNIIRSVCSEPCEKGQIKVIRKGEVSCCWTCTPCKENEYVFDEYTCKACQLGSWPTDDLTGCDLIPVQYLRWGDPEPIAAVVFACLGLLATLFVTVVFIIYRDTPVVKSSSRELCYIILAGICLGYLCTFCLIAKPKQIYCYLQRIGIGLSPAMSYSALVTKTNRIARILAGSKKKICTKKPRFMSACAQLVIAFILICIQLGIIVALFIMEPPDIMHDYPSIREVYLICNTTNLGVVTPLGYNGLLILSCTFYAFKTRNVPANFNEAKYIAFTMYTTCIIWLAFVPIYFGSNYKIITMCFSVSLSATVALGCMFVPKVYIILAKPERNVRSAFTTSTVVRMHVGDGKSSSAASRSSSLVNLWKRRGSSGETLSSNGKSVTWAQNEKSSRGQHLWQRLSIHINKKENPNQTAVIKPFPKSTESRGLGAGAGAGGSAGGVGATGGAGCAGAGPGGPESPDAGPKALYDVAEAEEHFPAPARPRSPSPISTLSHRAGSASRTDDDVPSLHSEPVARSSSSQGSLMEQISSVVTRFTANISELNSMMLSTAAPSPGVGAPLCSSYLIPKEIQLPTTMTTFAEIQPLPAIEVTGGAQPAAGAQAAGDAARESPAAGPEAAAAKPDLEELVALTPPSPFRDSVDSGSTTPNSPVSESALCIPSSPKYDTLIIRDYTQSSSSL
Assay: Intracellular Ca2+ mobilization assay (mGlu5 PAM)
Type: cell-based
Details: HEK293, maximal response in % of the maximal stimulatory effect obtained with saturating concentrations of L-glutamate; HEK-293 human mGlu5a cells; read-out: Eff. (%)
observation-type: Emax (%)

| compound | value-observed |
| --- | --- |
| CC1(C)CC(O)CCN1C(=O)c1ccc(C#Cc2cc(F)ccc2F)cn1 (racemic) | 42 |
| CN(C(=O)c1ncc(C#Cc2ccc(F)cc2)cn1)C(C)(C)C | 69 |
| Cc1cccc(C#Cc2ccc(C(=O)N(C)C3(C(F)(F)F)CC3)nc2)c1 | 46 |
| CN(C(=O)c1ccc(C#Cc2cccnc2)cn1)C(C)(C)C | 70 |
| CC1(C)CCCN(C(=O)c2ncc(C#Cc3ccccc3)cn2)C1 | 59 |
| CC1(C)CN(C(=O)c2ncc(C#Cc3cccc(F)c3)cn2)CCC1O (racemic) | 48 |
| CC(NC(=O)c1ccc(C#Cc2cccc(Cl)c2)cn1)C(F)(F)F (racemic) | 83 |
| CC(C)(C)NC(=O)c1ncc(C#Cc2cccc(F)c2)cn1 | 81 |
| CC1(C)CC(O)CCN1C(=O)c1ncc(C#Cc2cccc(F)c2)cn1 (racemic) | 55 |
| CN(C(=O)c1ncc(C#Cc2cncc(Cl)c2)cn1)C(C)(C)C | 27 |
| CN(C(=O)c1ccc(C#Cc2cncc(Cl)c2)cn1)C1(C(F)(F)F)CC1 | 57 |
| CN(C(=O)c1ncc(C#Cc2cc(F)ccc2F)cc1F)C(C)(C)C | 38 |
| CN(C(=O)c1ncc(C#Cc2cncc(Cl)c2)cc1F)C(C)(C)C | 29 |
| CN(C(=O)c1ccc(C#Cc2ccc(F)cc2)cn1)C1(C)COC1 | 68 |
| CN(C(=O)c1ncc(C#Cc2ccccc2)cc1C#N)C(C)(C)C | 96 |
